Where do these numbers come from? They come from PubChem BioAssay.

# method-description: UWB1.289_BRCA1 ovarian cancer growth, cell-based, BGB or cisplatin combinations (AID 1671459)
# test-parameters: UWB1.289 BRCA1 ovarian carcinoma, drug combinations, cisplatin combination, concentration series, at 5 µM, stronger effect = higher value
Non-standard residues stand in square brackets, D forms with d. Residues, ends and D or L forms follow the SMILES beside them. Dolaproine = CO[C@@H]([C@@H]1CCCN1)[C@@H](C)C(=O)O; Dil = CC[C@H](C)[C@H](NC)[C@@H](CC(=O)O)OC; NMeV = CN[C@H](C(=O)O)C(C)C
# maps each entry to its inhibition

The examples below pair each entry with its known result.
compound: NC(=S)NN=Cc1ncccc1N
inhibition: 62.5%
//
compound: C=CC1=C(C)C2=CC3=NC(=C(CC(=O)O)C4=NC(=C(C)C4=C(O)O)C=c4[nH]c(c(C)c4CC)=CC1=N2)C(CCC(=O)O)C3C (stereo not given)
inhibition: 10.4%
//
compound: CC[C@H](C)[C@@H]([C@@H](CC(=O)N1CCC[C@H]1[C@H](OC)[C@@H](C)C(=O)N[C@@H](Cc1ccccc1)C(=O)O)OC)N(C)C(=O)[C@@H](NC(=O)[C@@H](NC)C(C)C)C(C)C (H-[NMeV]V[Dil][Dolaproine]F-OH)
inhibition: 53.2%
//
compound: Cc1cc(C)cc(C(=O)NOCCCCCC(=O)NO)c1
inhibition: 110%
//
compound: Cn1cc(-c2cnn3c(N)c(Br)c([C@H]4CCCNC4)nc23)cn1
inhibition: 119%

Ask: inhibition lookup needed for `C[C@@H]1O[C@@H](O[C@@H]2[C@@H](O)[C@H](OCCc3ccc(O)c(O)c3)O[C@H](CO)[C@H]2OC(=O)C=Cc2ccc(O)c(O)c2)[C@H](O)[C@H](O)[C@H]1O` , thanks.
Result: 23.8%

Ask: inhibition lookup needed for `O=c1[nH]c(=S)[nH]c2nc(-c3ccccc3)c(-c3ccccc3)nc12` , thanks.
Result: -14.9%

Ask: inhibition lookup needed for N#Cc1ccc(OC2CCC(NC(=O)CCSc3nc4ccccc4c(=O)[nH]3)CC2)cc1 (stereo not given) , thanks.
Result: -12.4%

Ask: inhibition lookup needed for CC(Oc1cc(-c2cnn(C3CCNCC3)c2)cnc1N)c1c(Cl)ccc(F)c1Cl (stereo not given) , thanks.
Result: 38.8%

Ask: inhibition lookup needed for `COc1nc(N)nc2c1ncn2[C@@H]1O[C@H](CO)[C@@H](O)[C@H]1O` , thanks.
Result: 1.78%

----------
# method-description: growth inhibition, MDA-MB-436, cell-based, BGB or cisplatin combos, synergistic combos for chromothripsis tumors (AID 1671458);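 further: cells exposed for 96 hours; 0% = vehicle DMSO and 100% = killing by high DMSO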
# test-parameters: MDA-MB-436 breast carcinoma growth inhibition, drug combinations; measured here: BGB combination; at 0.5 µM; stronger effect = higher value
# maps each entry to its inhibition
Express the result in % but write the number alone.

compound: O=C(CCCCCCC(=O)NO)NO
reported: 0.608

Ask: inhibition lookup needed for `O=c1cc(-c2ccc(O)cc2)[nH]c(=S)[nH]1` , thanks.
Result: -13.5

Ask: inhibition lookup needed for `Cc1c(Br)cc(NCC(=O)N/N=C/c2cc([N+](=O)[O-])ccc2O)cc1Br` , thanks.
Result: -10.2

Ask: inhibition lookup needed for `CC(C)c1ccc(-c2cc(=O)c3ccccc3o2)cc1` , thanks.
Result: -14.1

Ask: inhibition lookup needed for `CC(C)C(=O)SCCCCCCC(=O)Nc1nc(-c2ccccc2)cs1` , thanks.
Result: -9.46

Ask: inhibition lookup needed for `O=C1C(=Cc2cccnc2)C(=O)c2ccccc21` , thanks.
Result: -13.8

Ask: inhibition lookup needed for NC(=O)c1cccc2[nH]c(-c3ccc(C4CCCN4)cc3F)nc12 (stereo unspecified) , thanks.
Result: -1.6

Ask: inhibition lookup needed for CCC(C)C(=O)OC1CC(C)C=C2C=CC(C)C(CCC3CC(O)CC(=O)O3)C21 (stereo unspecified) , thanks.
Result: -18.4

Ask: inhibition lookup needed for NC(=O)c1cccc2cn(-c3ccc(C4CCCNC4)cc3)nc12 (stereo unspecified) , thanks.
Result: -2.85

Ask: inhibition lookup needed for C=C(C)C1CCC2(C(=O)O)CCC3(C)C(CCC4C5(C)CCC(O)C(C)(C)C5CCC43C)C12 (stereo unspecified) , thanks.
Result: -9.2

Ask: inhibition lookup needed for COc1cccc2c1C(=O)c1c(O)c3c(c(O)c1C2=O)CC(O)(C(C)=O)CC3OC1CC(N)C(O)C(C)O1 (stereo unspecified) , thanks.
Result: 85.1
